assay: PET hydrolysis, aromatic products released after 48 h (umol product/mg enzyme); higher = more PET depolymerization activity; conditions: substrate: cryPow; 60 °C; pH 4.5
MEASUREMENT LABEL: PET hydrolysis

[[record]]
chain = "ADNPYERGPDPTESSIEASRGPFAVSQTTVSSLAVTGFGGGTIYYPTDTSQGTFGAVAISPGYTADQSSIAWIGPRLASQGFVVFTIDTITRYDQPASRGDQLLAALDYLTQRSSVRGRIDSSRLGVAGHSMGGGGTLEAAEERPSLQAAVPLAPWNLQKNFSGVRVPTFIIGGESDTVAPVATHSEPFYTSLPSTLDKAYMELNNASHFFPNTPNTTMAKYMISWFKRFIDDDTRYDQFLCPNPSGLAIEEYRSTCPY [TEP089]"
recorded_result = "< 3"

[[record]]
chain = "MAAANPYQRGPDPTLASVAATNGPFATAQMTVPPGNGFNGGYIYYPTDTSLGTWGAVAIVPGYTALFKNEEAWMGPRLASFGFVVIGIETNSRTDFDTARGTQLLAALDYLTQKSAVRNRVDPGRLGVIGHSMGGGGALVAATQRPSLKAAVGLAPFKPSGNLANDRVPTMFIAGNRDTVVTPSYLDGLYGSLPAATKKAYVQINGADHLFATKPNTVEMRTLIPWLKIFLDNDTRYSQFLCPTLLDKTGVSMYRGTCPLI [TEP109]"
recorded_result = 12.5


* * *

assay: PET hydrolysis, aromatic products released after 48 h (umol product/mg enzyme); higher = more PET depolymerization activity; conditions: substrate: cryPow; 40 °C; pH 7.5
Below is a list of entries, each paired with its recorded PET hydrolysis value.
MEASUREMENT LABEL: PET hydrolysis

[[record]]
chain = "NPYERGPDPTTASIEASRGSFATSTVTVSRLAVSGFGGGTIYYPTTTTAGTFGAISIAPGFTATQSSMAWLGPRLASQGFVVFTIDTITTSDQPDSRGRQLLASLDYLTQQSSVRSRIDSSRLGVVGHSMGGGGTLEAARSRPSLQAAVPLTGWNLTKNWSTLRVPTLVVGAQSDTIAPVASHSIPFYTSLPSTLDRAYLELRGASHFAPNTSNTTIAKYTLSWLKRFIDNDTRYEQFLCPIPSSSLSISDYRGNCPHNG [ESM167]"
inequality_sign = "="
recorded_result = 35.5

[[record]]
chain = "ATNPYQRGPAPTAESISAERGSFAVADSAVSADSVSGFGGGTVYYPTDTSAGKFGAVAIAPGFTANEWSLAWLGPRLASHGFVVFIIDTITTGDQPAQRGDELRAALSYLTTSSPVRDRVDPARLGVMGHSMGGGGALQAAEDDPSIRAVIPMTPYDLDSPSPKVTAPTLIIGAQDDTIAPVAYHARPFYESLTSARAKEYIELRNQSHFAPNYPNATIASASIAWLKRYIDDDQRYQPFACPAQVGSWLISDFRSAC [DP034]"
inequality_sign = "<"
recorded_result = 3

[[record]]
chain = "DEIGQAPTASNITGNGSFATTSASISSTVAGFGGGRVYYPTATGTYPVIAISPGFTATWSSLSWIGPRLSSWGFVVVGIETNSIYDQPGSRGSQLLAALNWAVSSSPTAVRSRVDGSRRGVAGHSMGGGGTLEALAADTSGLVKAGVPLAPWNSDKTWNNVSEPVLIVGGQSDTIAPVSSHSVPFYNTLAGPKTYVELTGASHFFPQSSNATTSRALVSWFKRWLNQDSRFTPFTCGFSGAAVSSFRTNAC [ESM093]"
inequality_sign = "="
recorded_result = 72


* * *

assay: purified protein yield per well (BCA); higher = higher soluble expression
MEASUREMENT LABEL: purified protein yield per well

[[record]]
chain = "ADNPFERGPDPSESSIEAYRGAYSVSEQSVSRWVSGFGGGTIHYPTTRSDGTFGAVVVSPGYTGTESSISWLGPRLASQGFVVLTMVTNSIYDYPDSRARQLQAALDYLTSSSSGVADRIDPDRLALMGHSMGGGGTLRAVSENPDIKAAIPMTPWHTDKTWREVTTPTLIFGAENDTVAPHYSHAEPFYDSLPSSLEKVYLELDGASHFAPNYSNTTIAKYSISWLKRFVDDDTRYSQFLCPGPSFWDGDVQTYESTCDF [TEP197]"
recorded_result = "< 25 µg"

[[record]]
chain = "CAAGGPGASPGLQPTIASLSVDGAFKVMTYTDIPDVPEFGDATVYYPADTPTPIGGVAISPGWTEAQRHINWWGPRLASHGYAVLVLDTNDARRDQPEERAEALIAAVRILRGENDRAESPLQGRVDTGKMAIMGHSMGGGGTLIAANKYPDEIQAAIPFTPWQPDGDFGQITAPTLVMAGSADRVAGVADHAWPHYQSIPETTTKVFMEVDGGNHFIADTRRGTDLGTIGRYGIAWLKLYLDGDERYRSFIYGAEAEVDREKFSRYLTSP [TEP119]"
recorded_result = "78.9 µg"

[[record]]
chain = "MHPSFPESEDPAPAARHSAAPLSRDCAHPPARRSTHRTAHRIAHRTARPDRSRRRIRGVLAAATAALLAVAGLTLIPNASAAENPFERGPAPSASSLAAARGPFATSQVTVSSRDASGFGGGTIYFPTSGDEGTFGAVAVAPGFTASRSSMAWLGPRLASQGFIVFNIDTITRSDQPASRGRQLLAALDFLVERSPIRDRVDPDRLAVMGHSMGGGGALEAAESRPTLRAAIPLTPWNLNKNWSRVQVPTMVIGAERDTIASVRFHSEPFFDSLPSDLDKAYLELNNASHFAPNIPNATISSFSVAWLKRFVDDDTRYEQFLCPPPRPAGEISEYQDTCARAS [TEP191]"
recorded_result = "< 25 µg"


* * *

Below is a list of entries, each paired with its recorded PET hydrolysis value.
assay: PET hydrolysis, aromatic products released after 48 h (umol product/mg enzyme); higher = more PET depolymerization activity; settings: substrate: cryPow; 40 °C; pH 5.5
MEASUREMENT LABEL: PET hydrolysis

[[record]]
chain = "APGPSAPCSNCTRGPNPTEASLKSDRGPFTTARFSVSGFLKGFGDSTVYYPTNTTGRMGAIAVIPGYLSYESSIEWWGPRLASHGFVVMTMNTSTIYDQPDSRATQLSKALDYLIAQSNTSSSPIYNKIDSTRLGAIGWSMGGGGSLKLSTQRSLNAIIPQAPWYSGSNSFNTIKTPALILACSADTVAPVSVHASPFYNRIPGSTPKAFLEIYGGSHFCANSGYPNEDLLGLYGIAWMKRFIDFDNRYSQFLCGPNHEGDFAISDYRQNCPY [ESM096]"
measurement_label = "PET hydrolysis"
inequality_sign = "<"
recorded_result = 3

[[record]]
chain = "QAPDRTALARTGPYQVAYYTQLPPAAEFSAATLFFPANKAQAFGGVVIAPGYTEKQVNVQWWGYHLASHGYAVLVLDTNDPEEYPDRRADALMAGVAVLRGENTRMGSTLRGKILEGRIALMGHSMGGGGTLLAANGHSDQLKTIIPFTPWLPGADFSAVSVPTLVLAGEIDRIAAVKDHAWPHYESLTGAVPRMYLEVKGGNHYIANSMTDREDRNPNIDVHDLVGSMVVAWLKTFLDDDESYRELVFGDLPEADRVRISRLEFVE [TEP006]"
measurement_label = "PET hydrolysis"
inequality_sign = "<"
recorded_result = 3

[[record]]
chain = "DTNPFQRGPAPTEASVSAQKGPFATAQVNVPANSGEGFNDGTIYYPTDTSQGTFGAIAVMPGFLSPQDWIRWYGPTLASQGFVVMTLDSKGFIDSPTARGNQLLAALDYLTTKSKVVDRIDTSRLGVVGWSMGGGGALESTYNRPSLKADVALAPWHVGLDQSKITVPSLILADDNDWLAPTGSFAKPFYAGIPESTNKAFIELKNANHFTFTGYNKNIAKYAVSWLKRFVDDDTRYDQFLCPKPATNNEISQSEETCPLH [DP054]"
measurement_label = "PET hydrolysis"
inequality_sign = "="
recorded_result = 5

[[record]]
chain = "NPYERGPAPTTSSIEASRGSFATSTTTVSRLAVSGFGGGTIYYPTSTASGTFGAVSIAPGFTATQSSMAWLGPRLASQGFVVFTIDTITTSDQPDSRGRQLLSSLDYLTQQSSVRSRIDSSRLGVVGHSMGGGGTLEAARSRPSLQAAVPLTGWNLTKSWSTVRVPTLVVGAQADTVAPVASHSIPFYTSLPSSLDKAYLELRGASHFAPNSANTTIAKYTLSWLKRFIDDDTRYEQFLCPIPGTSTTISDYRGNCPHAG [ESM140]"
measurement_label = "PET hydrolysis"
inequality_sign = "="
recorded_result = 5

[[record]]
chain = "ADNPYQRGPDPTPQSISATTGPFATASVTVPRQGNFGGGVIYYPTDTSQGTFGAVAISPGLNGTWPGIAWLGPRLSSQGFVVFGIDTLGLNDSTASRGSQLLAALDYLTQTSSVRTRVDASRLAVAGHSMGGGGAFEAVLRRPTLKASIPNAPFFPGSAANVRVPTLITAMQNDSLVGQNRNAYNGIPAGVEKAYIELAGAGHNQIGQPTTAIARNWIPWLKIFVDNDARYHQFFCPTTNMSGLSQYLNTCPLTSATPPTSSPSAGPTTPGPTGPPPGGACAATYQTVNTWSGGYQGEMTVRAGNSAINGWTVRWTMGGGQISQVWNGTLVTGSGAAAVRNAPYNGALAAGATTTFGFISSGTPSATSLTCATP [ESM064]"
measurement_label = "PET hydrolysis"
inequality_sign = "="
recorded_result = 11

[[record]]
chain = "ADTPYERGPNPSESLIEQRRGNYDIAQRSISRFSSDGFRNGTIYYPTDTSDGKFGVIAISPGYTAGESSIAWLGSRIASFGFVVVTINTTTRYDQPRQRSTQLLAALDHAMNDSVVGPLIDPERQAVMGHSMGGGGALQAAESRPEIDAVVALTPWNLKKNWDGVDAATLIIGAERDTVASVRTHSIPFYESLTQAEQRGYLELRGASHFAPNVSNTTIAKYSIAWMKRYLDNDDRYDQFLNPGPAVGYASGVSDYRLQ [DP003]"
measurement_label = "PET hydrolysis"
inequality_sign = "<"
recorded_result = 3

[[record]]
chain = "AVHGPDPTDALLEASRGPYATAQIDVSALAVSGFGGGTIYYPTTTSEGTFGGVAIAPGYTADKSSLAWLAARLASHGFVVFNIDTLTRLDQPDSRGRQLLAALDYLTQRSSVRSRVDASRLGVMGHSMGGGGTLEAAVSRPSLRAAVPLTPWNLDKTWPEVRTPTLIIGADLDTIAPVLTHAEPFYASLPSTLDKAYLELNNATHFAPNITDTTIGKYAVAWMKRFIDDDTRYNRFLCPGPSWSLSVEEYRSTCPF [TEP061]"
measurement_label = "PET hydrolysis"
inequality_sign = "<"
recorded_result = 3

[[record]]
chain = "MHPTPDRAKVLPVNVSRGPAEPPAARSARPGGRSAPDGLRPGRRRPVPSSEQGATDVQSHPPTPANRRTRTVATLALALTLVGGAGAIAPTAHAAAGHERGPNPTSAALEASRGPFSVSSTTVSSLSASGFGGGTIYYPNDTGQGTFGGVIVAPGFTASRSTMAWLAERLASHGFVVFNIDTITRSDQPDSRGRQLLAAADHLAEESSPAVRSRLDAGRIGVMGHSMGGGGTLAAAESRPSLQAAVPLTPWHTDKSWGSVQVPTMIIGAENDSVAPVSSHAEPFYNSLSSAQEKAYLELNGASHFAPNSSNSTLAKYSIAWMKRFVDDDLRYDQFLCPAPGRSTRIEEYRSSCPH [TEP081]"
measurement_label = "PET hydrolysis"
inequality_sign = "<"
recorded_result = 3

[[record]]
chain = "GSLAHIVMVDAYKPTKGSGASQTNPYARGPNPTAASLEASAGPFTVRSFTVSRPSGYGAGTVYYPTNAGGTVGAIAIVPGYTARQSSIKWWGPRLASHGFVVITIDTNSTFDYPSSRSSQQMAALRQVASLNGDSSSPIYGKVDTARMGVMGHSMGGGASLRSAANNPSLKAAIPQAPWDSQTNFSSVTVPTLIFACENDSIAPVNSHALPIYDSMSRNAKQFLEINGGSHSCANSGNSNQALIGKKGVAWMKRFMDNDTRYSTFACENPNSTAVSDFRTANCSLEGSGGSGAHIVMVDAYKPTK [TEP004]"
measurement_label = "PET hydrolysis"
inequality_sign = "="
recorded_result = 33

[[record]]
chain = "ATTSFQRGPAPTTASIQATSGPFATSQTTVSRISVTGFGGGDIYYPTSTSSGTFGAVAIAPGYTALRSSMAWLAPRIASQGFVVFNIDTLTTSDQPATRGTELLAALDYLTTRSTVRTRIDTTRLAVMGHSMGGGGTLEAAKSRPSLQAAIPLTPWDLNKSFAGLAVPTLIIGAQADTVAPVSQHAKPFFTSLPSGLDKAYLELAGASHFAPNTSNTTIASISIAWLKRFVDDDTRYDQFLCPGPTVGTAVSQFTTNCPHIS [ESM156]"
measurement_label = "PET hydrolysis"
inequality_sign = "="
recorded_result = 9.5

